Source listed as patent US11878965B2.

# system name: human PAD4 (Homo sapiens (Human), UniProt Q9UM07)
# Sequence (Q9UM07 2-663): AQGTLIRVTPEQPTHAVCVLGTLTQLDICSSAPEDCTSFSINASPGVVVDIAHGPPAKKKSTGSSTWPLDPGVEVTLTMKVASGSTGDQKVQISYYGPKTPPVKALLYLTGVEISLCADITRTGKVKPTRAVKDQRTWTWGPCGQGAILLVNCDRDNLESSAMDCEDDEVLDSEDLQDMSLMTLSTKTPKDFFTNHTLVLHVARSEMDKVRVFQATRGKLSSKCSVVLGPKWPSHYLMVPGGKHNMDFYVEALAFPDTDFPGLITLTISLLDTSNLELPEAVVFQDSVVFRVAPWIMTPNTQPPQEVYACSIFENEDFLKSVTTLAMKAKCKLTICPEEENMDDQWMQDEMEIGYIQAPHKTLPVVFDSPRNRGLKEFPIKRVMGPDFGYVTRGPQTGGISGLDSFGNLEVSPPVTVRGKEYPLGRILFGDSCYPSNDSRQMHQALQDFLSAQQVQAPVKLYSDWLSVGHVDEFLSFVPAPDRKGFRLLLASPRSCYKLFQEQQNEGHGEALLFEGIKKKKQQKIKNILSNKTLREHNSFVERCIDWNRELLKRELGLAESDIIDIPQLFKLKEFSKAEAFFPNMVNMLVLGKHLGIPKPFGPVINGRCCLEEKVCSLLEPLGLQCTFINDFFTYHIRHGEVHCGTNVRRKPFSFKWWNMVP
# experimental details: In Vitro PAD4 BAEE Biochemical Assay
# setup conditions: human PAD4, BAEE substrate; 5 nM PAD4, 2 mM calcium chloride, 3 mM BAEE; geometric mean of multiple experiments
pIC50: −log10 of the molar value.
Class assignment keyed on pIC50, ranges lower level (below 6), middle level (6 to below 7), upper level (7 or more)

In [3]: df
Out[3]:
                                    molecule  discrete_label
 0  COc1cc(C(=O)N2C[C@H](N)CC[C@@H]2C)cc2nc(-c3cc4ccc(-c5sc(C(C)C)nc5C)nc4n3CC3CC3)n(C)c12     lower level
 1  COc1cc(C(=O)N2CCC[C@@H](N)C2)cc2nc(-c3cc4ccc([C@@H](C)NC(=O)c5ccccc5)nc4n3CC3CC3)n(C)c12     upper level
 2  COc1cc(C(=O)N2CCC[C@@H](N)[C@H]2C)cc2nc(-c3cc4ccc(N=S(C)(C)=O)nc4n3CC3CC3)n(C)c12     lower level
 3  COc1cc(C(=O)N2CC3(CCCCN3)C2)cc2nc(-c3cc4ccc(N(C(F)F)S(C)(=O)=O)nc4n3CC3CC3)n(C)c12     lower level
 4  COc1cc(C(=O)N2C[C@H](N)CCN2C)cc2nc(-c3cc4ccc([C@@H](C)NC(=O)C(F)(F)c5ccccc5)nc4n3CC3CC3)n(C)c12    middle level
 5  COc1cc(C(=O)N2C[C@H](N)CC[C@@H]2C)cc2nc(-c3cc4ccc(-c5ccc(N6CCC6)nc5C)nc4n3CC3CC3)n(C)c12    middle level
 6  COc1cc(C(=O)N2[C@H]3CC[C@@H]2[C@H](N)C3)cc2nc(-c3cc4ccc([C@@H](C)NC(=O)N(C)C)nc4n3CC3CC3)n(C)c12     upper level
 7  COc1cc(C(=O)N2C[C@H](N)[C@@H]3CC[C@H]2C3)cc2nc(-c3cc4ccc([C@@H](C)NC(=O)c5ccccc5)nc4n3CC3CC3)n(C)c12     upper level
 8  COc1cc(C(=O)N2CCCC3(CCCCN3)C2)cc2nc(-c3cc4ccc(N(C(F)F)S(C)(=O)=O)nc4n3CC3CC3)n(C)c12 (stereo not drawn)     lower level
 9  COc1cc(C(=O)N2C[C@H](N)CC[C@@H]2C)cc2nc(-c3cc4ccc(-c5c(C)ccnc5-c5ccccc5)nc4n3CC3CC3)n(C)c12    middle level
10  COc1cc(C(=O)N2[C@H]3CC[C@@H]2[C@H](N)C3)cc2nc(-c3cc4ccc([C@@H](C)NC(C)=O)nc4n3CC3CC3)n(C3CC3)c12     upper level
11  COc1cc(C(=O)N2C[C@H](N)CC[C@@H]2C)cc2nc(-c3cc4ccc(-c5cccnc5-c5ccccc5)nc4n3CC3CC3)n(C)c12    middle level
12  COc1cc(C(=O)N2CCC[C@@H](N)C2)cc2nc(-c3cc4ccc(N(C)S(=O)(=O)C(C)C)nc4n3CC3CC3)n(C)c12    middle level
